B1: LINE1-mini (parent)
chain: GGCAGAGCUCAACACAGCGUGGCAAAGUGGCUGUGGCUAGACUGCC

# Variants of: B1
# testDetails: self-cleavage, relative activity (ratio to wild type); higher = more cleavage; in vitro, sequencing; the parent is a self-cleaving ribozyme
Decide using self-cleavage: a value greater than or equal to 0.1 is class 1, a smaller one is class 0.

Recorded results for 3 variants are shown here.
# sequenceInput, class
rows = [
    ("GGCAGACCUCAACACAGCGUGGCAAAGUGGCUUUGGCUAGACUGCC [G7C G33U]", "class 0"),
    ("GGCAGAGCUCAACAAAGCGUGGCAAAGUGGCUGUGGCUCGACUGCC [C15A A39C]", "class 0"),
    ("GGUAGAGCUCAACACAGCGUGGCAAAAUGGCUGUGGCUAGACUGCC [C3U G27A]", "class 1"),
]

Q: Could you verify whether the entry GGCAGAGAUCACCACAGCGUGGCAAAGUGGCUGUGGCUAGACUGCC [C8A A12C] shows self-cleavage of no less than 0.1?
A: class 0

Q: Could you verify whether the entry GGCAGAGCCCAACACAGCGUGGCAAAGUGGCUGUGGCUAGACGGCC [U9C U43G] shows self-cleavage of no less than 0.1?
A: class 0

Q: Could you verify whether the entry GGCAGAGUUCAACACAGCGUGGCAAAGUGGCUGUGGCUAGACGGCC [C8U U43G] shows self-cleavage of no less than 0.1?
A: class 1

Q: Could you verify whether the entry GGAAGAGCUCAACACAGCGUGGCAAAGUGGCUGUGGCUAGACUGGC [C3A C45G] shows self-cleavage of no less than 0.1?
A: class 1

Q: Could you verify whether the entry GGCAGAGCUCAACACAGCGCGGCAAAGUGGCUGUGGCUAGAAUGCC [U20C C42A] shows self-cleavage of no less than 0.1?
A: class 0

Q: Could you verify whether the entry GGCAGAGCUCAACACAGCGUGGCACAGUGGCUGUGGCUAGACCGCC [A25C U43C] shows self-cleavage of no less than 0.1?
A: class 0

Data provenance is the RNAGym collection of RNA variant scans (doi:10.7554/elife.90254).
